B1: Intersectin-1, residues 909 to 971; numbered along this chain, Q15811 (parent)
chain: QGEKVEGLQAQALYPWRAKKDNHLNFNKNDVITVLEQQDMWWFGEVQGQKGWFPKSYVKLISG

# Variants of: B1
# protocol-summary: abundance fitness (aPCA) (normalised: wild type 0, dead -1); higher = more abundant; growth selection in yeast, the domain comes from the species named
# condition-context: Homo sapiens
measure-name: abundance fitness
Answer as a number with no unit attached.

Example results:
T33G | -0.196
I32W | -0.869
L60D | -0.22
K50V | -0.26
G44A | -1.03

Notebook: I61F , abundance fitness read as 0.08

Notebook: K50C , abundance fitness read as -0.113
